tested.system: κ receptor (Mus musculus)
Construct: from tissue; host or cells: mouse (male ddy) vas deferens
assay.info: Opioid activity test using an extracted mouse vas deferens preparation, Ke with norBNI
Parameters: species or system male ddy mouse
condition.label: κ, norBNI added
Where a name gives a salt, the structure may show the parent alone.
Mark Met for reported Ke, norBNI of 0.2 nM or greater; mark Not met for anything smaller.

1. CN(C(=O)/C=C/c1cccc(Br)c1)[C@@H]1CC[C@@]2(O)[C@H]3Cc4ccc(O)c5c4[C@@]2(CCN3CC2CC2)[C@H]1O5 [Compound 151, hydrobromide] :: Not met

Please check the record CCCCOC(=O)N(C)[C@H]1CC[C@@]2(O)[C@H]3Cc4ccc(O)c5c4[C@@]2(CCN3CC2CC2)[C@H]1O5 and state if its Ke, norBNI is at or above 0.2 nM.
Not met

Please check the record CC(=O)Oc1ccc2c3c1O[C@H]1[C@H](N(C)C(=O)/C=C/c4cccc(C(F)(F)F)c4)CC[C@@]4(O)[C@@H](C2)N(CC2CC2)CC[C@]314 and state if its Ke, norBNI is at or above 0.2 nM.
Met

Please check the record CN(C(=O)/C=C/c1ccc(C(F)(F)F)cc1)[C@@H]1CC[C@@]2(O)[C@H]3Cc4ccc(O)c5c4[C@@]2(CCN3CC2CC2)[C@H]1O5 and state if its Ke, norBNI is at or above 0.2 nM.
Met

Please check the record CN(C(=O)/C=C/c1ccoc1)[C@@H]1CC[C@@]2(O)[C@H]3Cc4ccc(O)c5c4[C@@]2(CCN3CC2CC2)[C@H]1O5 and state if its Ke, norBNI is at or above 0.2 nM.
Not met

Please check the record CCCCCC(=O)N(C)[C@H]1CC[C@@]2(O)[C@H]3Cc4ccc(O)c5c4[C@@]2(CCN3CC2CC2)[C@H]1O5 and state if its Ke, norBNI is at or above 0.2 nM.
Met

###

assay.info: Diuretic action (urine output for 5 hours after physiological saline loading in rats)
Format: in vivo, male Wistar rats
condition.label: Rattus norvegicus, sc, dose giving urine output of 500 (non-dosed group = 100), 5 hours after saline 20 ml/kg p.o.
recorded.metric: ED (500% urine output) (mg/kg)
Lab book: enter the figure in mg/kg, no units written.

Record excerpt, results attached:
1) CN(C(=O)/C=C/c1ccsc1)[C@H]1CC[C@@]2(O)[C@H]3Cc4ccc(O)c5c4[C@@]2(CCN3CC2CC2)[C@H]1O5 :: 0.96
2) CN(C(=O)OCc1ccccc1)[C@@H]1CC[C@@]2(O)[C@H]3Cc4ccc(O)c5c4[C@@]2(CCN3CC2CC2)[C@H]1O5 :: 0.0518
3) CN(C(=O)/C=C/C1CCCCC1)[C@H]1CC[C@@]2(O)[C@H]3Cc4ccc(O)c5c4[C@@]2(CCN3CC2CC2)[C@H]1O5 :: 0.0325

We now examine a further compound.
Reported ED (500% urine output) for CN(C(=O)/C=C/c1ccoc1)[C@H]1CC[C@@]2(O)[C@H]3Cc4ccc(O)c5c4[C@@]2(CCN3CC2CC2)[C@H]1O5 was 0.0162

###

tested.system: κ receptor (Mus musculus, UniProt P33534)
Construct: from tissue; host or cells: mouse (male ddy) vas deferens
Sequence (P33534 whole entry): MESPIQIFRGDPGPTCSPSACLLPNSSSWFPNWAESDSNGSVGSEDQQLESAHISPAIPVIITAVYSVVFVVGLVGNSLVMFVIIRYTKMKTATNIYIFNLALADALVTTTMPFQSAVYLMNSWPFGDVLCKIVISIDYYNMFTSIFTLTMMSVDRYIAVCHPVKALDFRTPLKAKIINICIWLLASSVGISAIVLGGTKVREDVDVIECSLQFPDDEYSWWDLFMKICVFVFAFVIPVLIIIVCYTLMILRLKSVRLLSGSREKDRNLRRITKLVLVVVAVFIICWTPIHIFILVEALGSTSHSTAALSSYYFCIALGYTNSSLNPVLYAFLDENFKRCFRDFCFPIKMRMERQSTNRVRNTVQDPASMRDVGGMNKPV
assay.info: Opioid activity test using an extracted mouse vas deferens preparation, Ke with norBNI
Design: species or system male ddy mouse
condition.label: κ, norBNI added
Readings of Ke, norBNI for the listed compounds
Lab book: enter the figure in nM, no units written.

Record excerpt, results attached:
1. COc1cccc(C#CC(=O)N(C)[C@@H]2CC[C@@]3(O)[C@H]4Cc5ccc(O)c6c5[C@@]3(CCN4CC3CC3)[C@H]2O6)c1.O=C(O)C(O)C(O)C(=O)O :: 0.11
2. CN(C(=O)CCCc1ccccc1)[C@@H]1CC[C@@]2(O)[C@H]3Cc4ccc(O)c5c4[C@@]2(CCN3CC2CC2)[C@H]1O5 :: 0.303
3. CC(C)CN(C(=O)/C=C/c1cccc(C(F)(F)F)c1)[C@@H]1CC[C@@]2(O)[C@H]3Cc4ccc(O)c5c4[C@@]2(CCN3CC2CC2)[C@H]1O5 :: 4.78

Reported Ke, norBNI for CN(C(=O)/C=C/c1ccco1)[C@@H]1CC[C@@]2(O)[C@H]3Cc4ccc(O)c5c4[C@@]2(CCN3CC2CC2)[C@H]1O5 was 0.198

Reported Ke, norBNI for CCC/C=C/C(=O)N(C)[C@@H]1CC[C@@]2(O)[C@H]3Cc4ccc(O)c5c4[C@@]2(CCN3CC2CC2)[C@H]1O5 was 0.0717

Reported Ke, norBNI for CN(C(=O)Cc1ccc(Cl)c(Cl)c1)[C@@H]1CC[C@@]2(O)[C@H]3Cc4ccc(O)c5c4[C@@]2(CCN3CC2CC2)[C@H]1O5 was 0.21

###

Tested on: cultured nerve cells (cerebral cortex)
assay.info: cells
condition.label: Rattus norvegicus, Cerebral cortex neuron, 24 h, read-out: ED50 (protection against glutamic acid toxicity)
Readings of pEC50 for the listed compounds
Give only the number. pEC50 is defined as minus log10 of concentration in molar units.

1. CN(Cc1ccccc1)[C@@H]1CC[C@@]2(O)[C@H]3Cc4ccc(O)c5c4[C@@]2(CCN3CC2CC2)[C@H]1O5 :: 5.24
2. CN(C(=O)OCc1ccccc1)[C@@H]1CC[C@@]2(O)[C@H]3Cc4ccc(O)c5c4[C@@]2(CCN3CC2CC2)[C@H]1O5 :: 5.28
3. CN(C(=O)Cc1cccc(C(F)(F)F)c1)[C@@H]1CC[C@@]2(O)[C@H]3Cc4ccc(O)c5c4[C@@]2(CCN3CC2CC2)[C@H]1O5 :: 5.63
4. CN(C(=O)/C=C/C1CCCCC1)[C@@H]1CC[C@@]2(O)[C@H]3Cc4ccc(O)c5c4[C@@]2(CCN3CC2CC2)[C@H]1O5 :: 5.85
5. CN(C(=O)/C=C/c1ccccc1)[C@@H]1CC[C@@]2(O)[C@H]3Cc4ccc(O)c5c4[C@@]2(CCN3CC2CC2)[C@H]1O5 :: 4.81

We now examine a further compound.
Reported pEC50 for CN(C(=O)/C=C/c1ccccc1)[C@H]1CC[C@@]2(O)[C@H]3Cc4ccc(O)c5c4[C@@]2(CCN3CC2CC2)[C@H]1O5 was 5.72

###

tested.system: κ receptor (Mus musculus)
Construct: from tissue; host or cells: mouse (male ddy) vas deferens
assay.info: Opioid activity test using an extracted mouse vas deferens preparation, Ke with norBNI
Set-up: species or system male ddy mouse
condition.label: κ, norBNI added
Where a name gives a salt, the structure may show the parent alone.
# criterion met = Ke, norBNI below 0.7 nM (exclusive); criterion not met = Ke, norBNI at/above 0.7 nM

Solved cases below.
1) CN(C(=O)C#Cc1ccccc1)[C@H]1CC[C@@]2(O)[C@H]3Cc4ccc(O)c5c4[C@@]2(CCN3CC2CC2)[C@H]1O5 :: criterion not met
2) CN(C(=O)/C=C/c1ccc(Br)cc1)[C@@H]1CC[C@@]2(O)[C@H]3Cc4ccc(O)c5c4[C@@]2(CCN3CC2CC2)[C@H]1O5 [Compound 156, hydrobromide] :: criterion met
3) CN(C(=O)CCc1ccccc1)[C@@H]1CC[C@@]2(O)[C@H]3Cc4ccc(O)c5c4[C@@]2(CCN3CC2CC2)[C@H]1O5 :: criterion met
4) CN(C(=O)/C=C/c1ccccc1)[C@@H]1CC[C@@]2(O)[C@H]3Cc4ccc(O)c5c4[C@@]2(CCN3CC2CC2)[C@H]1O5 :: criterion met

Would you kindly look at the next entry?
Identify whether the molecule CN(C(=O)OCc1ccccc1)[C@H]1CC[C@@]2(O)[C@H]3Cc4ccc(O)c5c4[C@@]2(CCN3CC2CC2)[C@H]1O5 records Ke, norBNI below 0.7 nM.
criterion not met

###

tested.system: κ receptor (Mus musculus, UniProt P33534)
Construct: from tissue; host or cells: mouse (male ddy) vas deferens
assay.info: Opioid activity test using an extracted mouse vas deferens preparation, Ke with norBNI
Design: species or system male ddy mouse
condition.label: κ, norBNI added
Readings of Ke, norBNI for the listed compounds
Lab book: enter the figure in nM, no units written.

1) Cc1cccc(C#CC(=O)N(C)[C@@H]2CC[C@@]3(O)[C@H]4Cc5ccc(O)c6c5[C@@]3(CCN4CC3CC3)[C@H]2O6)c1.Cl :: 0.163
2) C=CCN1CC[C@]23c4c5ccc(O)c4O[C@H]2[C@@H](N(C)C(=O)Cc2ccc(Cl)c(Cl)c2)CC[C@@]3(O)[C@H]1C5 :: 0.358

We now examine a further compound.
Reported Ke, norBNI for CN(C(=O)CCc1ccccc1)[C@H]1CC[C@@]2(O)[C@H]3Cc4ccc(O)c5c4[C@@]2(CCN3CC2CC2)[C@H]1O5 was 5.53

###

tested.system: δ receptor (Mus musculus)
Construct: The vas deferens extracted from the animal was suspended in a Magnus tube; from tissue; host or cells: mouse (male ddy) vas deferens
Sequence (P32300 whole entry): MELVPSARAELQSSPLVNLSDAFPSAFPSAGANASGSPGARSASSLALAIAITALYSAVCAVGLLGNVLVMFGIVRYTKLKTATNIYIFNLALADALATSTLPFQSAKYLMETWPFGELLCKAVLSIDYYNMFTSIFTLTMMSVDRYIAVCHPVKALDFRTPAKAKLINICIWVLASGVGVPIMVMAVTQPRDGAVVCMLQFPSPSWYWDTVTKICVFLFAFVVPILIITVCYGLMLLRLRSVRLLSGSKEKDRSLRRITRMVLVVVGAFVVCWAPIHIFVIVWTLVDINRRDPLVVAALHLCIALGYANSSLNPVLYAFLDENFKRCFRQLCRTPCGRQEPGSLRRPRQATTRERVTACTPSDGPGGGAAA
Set-up: species or system male ddy mouse
condition.label: mouse vas deferens, δ, NTI added
Readings of Ke, NTI for the listed molecules
Lab book: enter the figure in nM, no units written.

Record excerpt, results attached:
1) CN(C(=O)CCCc1ccccc1)[C@@H]1CC[C@@]2(O)[C@H]3Cc4ccc(O)c5c4[C@@]2(CCN3CC2CC2)[C@H]1O5 :: 55.6
2) Cc1cccc(/C=C/C(=O)N(C)[C@@H]2CC[C@@]3(O)[C@H]4Cc5ccc(O)c6c5[C@@]3(CCN4CC3CC3)[C@H]2O6)c1 :: 64.5

We now examine a further molecule.
Reported Ke, NTI for CN(C(=O)/C=C/c1cccc(C(F)(F)F)c1)[C@@H]1CC[C@@]2(O)[C@H]3Cc4ccc(O)c5c4[C@@]2(CCN3CC2CC2)[C@H]1O5 was 291
